Test system: lacZ under control of the tetA promoter (PtetA) in E. coli KM3
Format: cell-based
MEASUREMENT_CONDITIONS: Table 4; nicosulfuron 20 ppm; 48 hrs at 30° C.
Measured relative β-galactosidase activity, inducer Ns values are reported for all entries that follow.
Write the value as a bare number.

Examples from the recorded data:
MOLECULE	EXPERIMENTAL_VALUE
L1-22: SU-responsive TetR(B) variant, library L1 hit, SEQ ID NO: 7 (protein, Sulfornylurea responsive repressor L1-22) MGSRLDKSKVINSALELLNEVGIEGLTTRKLAQKLGVEQPTLYWHVKNKRALLDALAIEMMDRHHTHFCPLEGESWQDFLRNTAKSYRCALLSHRDGAKVCLGTAITEKQYETKENNLAFLCQQGFSLENALYARQAVRVFTLGCVLFDQEMQVAKEERETPTTDSMPPLLRQASELLDHQGAEPAFLFGLELIICGLEKQLKSESGS	0.2
L1-9: SU-responsive TetR(B) variant, library L1 hit (protein, Sulfonylurea responsive repressor L1-09) MGSRLDKSKVINSALELLNEVGIEGLTTRKLAQKLGVEQPTLYWHVKNKRALLDALAIEMLDRHATHFCPLEGESWQDFLRNNAKSMRCALLSHRDGAKVCLGTGFTEKQYETAENSLAFLCQQGFSLENALYAMQAVCIFTLGCVLLDQELQVAKEERETPTTDSMPPLLRQALELKDHQGAEPAFLFGLELIICGLEKQLKCESGS	0.3
L1-44: SU-responsive TetR(B) variant, library L1 hit, SEQ ID NO: 13 (protein, Sulfonylurea responsive repressor L1-44) MGSRLDKSKVINSALELLNEVGIEGLTTRKLAQKLGVEQPTLYWHVKNKRALLDALAIEMLDRHATHFCPLEGESWQDFLRNNAKSYRCALLSHRDGAKVYLGTAVTEKQYETAENQLAFLCQQGFSLENALYAVKAVAGFTLGCVLWDQESQVAKEERETPTTASMPPLLRQAVELADHQGAEPAFLFGLELIICGLEKQLKCESGS	0.4
L1-7: SU-responsive TetR(B) variant, library L1 hit, SEQ ID NO: 4 (protein, Sulfonylurea responsive repressor L1-07) MGSRLDKSKVINSALELLNEVGIEGLTTRKLAQKLGVEQPTLYWHVKNKRALLDALAIEMLDRHNTHFCPLEGESWQDFLRNNAKSWRCALLSHRDGAKVVLGTAITEKQYETHENPLAFLCQQGFSLENALYAIAAVRRFTLGCVLVDQERQVAKEERETPTTDSMPPLLRQASELQDHQGAEPAFLFGLELIICGLEKQLKCERGS	0.1

For the next question, use this molecule.
The recorded relative β-galactosidase activity, inducer Ns for L1-2: SU-responsive TetR(B) ligand binding domain variant, library L1 hit, SEQ ID NO: 3 (protein, Sulfonylurea responsive repressor L1-02) MGSRLDKSKVINSALELLNEVGIEGLTTRKLAQKLGVEQPTLYWHVKNKRALLDALAIEMLDRHATHFCPLEGESWQDFLRNNAKSFRCALLSHRDGAKVCLGTAVTEKQYETMENILAFLCQQGFSLENALYARRAVIAFTLGCVLWDQEYQVAKEERETPTTDSMPPLLRQARELIDHQGAEPAFLFGLELIICGLEKQLKCESGS is 1.3
